Readings of Cmax for the listed compounds
assay: Cmax in rat at 10 mg/kg, po after 2 hrs; type: ADME, organism-based; parameters: dose 10 mg/kg, route oral; details: in vivo
Answer in nM, number only, no unit symbol.

CCCCNC1=N/C(=C\c2ccc(-n3cnc(C)c3)c(OC)c2)C(=O)N1Cc1ccc(F)cc1    2300

Q: Consider the compound shown here: CCNC1=N/C(=C\c2ccc(-n3cnc(C)c3)c(OC)c2)C(=O)N1[C@H](C)c1ccc(F)cc1 What is its recorded Cmax?
Ans: 2300

* * *

experiment: AUC (0 to 6 hrs) in po dosed rat; assay type: ADME, organism-based; parameters: time < 6 hr, route oral; settings: plasma
endpoint: AUC(0-t) at 6 h (µM·h)
Answer in µM·h, number only, no unit symbol.

Q: Consider the compound shown here: COc1cc(/C=C2\CCCN([C@@H](C)c3ccc(F)cc3)C2=O)ccc1-n1cnc(C)c1 What is its recorded AUC(0-t) at 6 h?
Ans: 60.4

* * *

molecular target: Gamma-secretase; assay: Inhibition of gamma secretase-mediated amyloid beta42 production in HEK293 cells
Readings of IC50 for the listed compounds

Completed entries (count: 3):
COc1cc(Cc2c[nH]c(=N)n([C@@H](C)c3ccc(F)cc3)c2=O)ccc1-n1cnc(C)c1    446 nM
CCN1CCC(c2ccc(F)cc2)N2C(=O)/C(=C/c3ccc(-n4cnc(C)c4)c(OC)c3)N=C12 (single isomer, unassigned; (+))    85 nM
CCN1CC(c2ccc(F)cc2)N2C(=O)/C(=C/c3ccc(-n4cnc(C)c4)c(OC)c3)N=C12 (single isomer, unassigned; (-))    56 nM

Q: Consider the compound shown here: COc1cc(/C=C2\N=C(NCCO)N([C@H](C)c3ccc(F)cc3)C2=O)ccc1-n1cnc(C)c1 What is its recorded IC50?
Ans: 63 nM

Q: What do you have for COc1cc(/C=C2/C(=O)N([C@@H](C)c3ccc(F)cc3)C(=N)NC2(C)C)ccc1-n1cnc(C)c1 ?
Ans: > 20000 nM

Q: What do you have for COc1cc(/C=C2\N=C(N3CCCCC3)N([C@@H](C)c3ccc(F)cc3)C2=O)ccc1-n1cnc(C)c1 ?
Ans: 955 nM

* * *

experiment: Selectivity ratio of total amyloid beta to amyloid beta 42
endpoint: Ratio

COc1cc(/C=C2\N=C(N)N([C@H](CCO)c3ccc(F)cc3)C2=O)ccc1-n1cnc(C)c1    87
CCNC1=N/C(=C\c2ccc(-n3cnc(C)c3)c(OC)c2)C(=O)N1[C@H](CCO)c1ccc(F)cc1    117
CCN1CCC(c2ccc(F)cc2)N2C(=O)/C(=C/c3ccc(-n4cnc(C)c4)c(OC)c3)N=C12 (single isomer, unassigned; (+))    71
COc1cc(/C=C2\N=C(NCCO)N([C@H](C)c3ccc(F)cc3)C2=O)ccc1-n1cnc(C)c1    27
COc1cc(/C=C2\N=C3NCCC(c4ccc(F)cc4)N3C2=O)ccc1-n1cnc(C)c1 (single isomer, unassigned; (+))    188

Q: Consider the compound shown here: COc1cc(/C=C2\N=C(NCCO)N([C@@H](C)c3ccc(F)cc3)C2=O)ccc1-n1cnc(C)c1 What is its recorded Ratio?
Ans: 79

Q: What do you have for COc1cc(/C=C2\N=C(NCCCO)N([C@H](C)c3ccc(F)cc3)C2=O)ccc1-n1cnc(C)c1 ?
Ans: 153

Q: What do you have for COCCCNC1=N/C(=C\c2ccc(-n3cnc(C)c3)c(OC)c2)C(=O)N1[C@@H](C)c1ccc(F)cc1 ?
Ans: 70
